assay: yeast display, Sf9 membrane polyspecificity reagent, FACS + sequencing; frameworks hold sequencing errors
QUANTITY KIND: polyreactivity (PSR sort gate)

Below: 8 sequences and their reported polyreactivity (PSR sort gate).
{"columns": ["QUERY SEQUENCE", "polyreactivity (PSR sort gate)"],
 "data": [
  ["QVQLVESGGGLVQAGGSLRLSCAASGITFVLYAMGWYRQAPGKERELVAAITWRGGSTYYADSVKGRFTISRDNAKNTVYLQMNSLKPEDTAVYYCAAVPFTSYRQGDYWGQGTQVTVSS", "low polyreactivity"],
  ["QVQLVESGGGLVQAGGSLRLICAASGGIFYSNARGWYRQAPGKERDFVAAITRSGTSTYYADSVKGRITISRDNAKNTVYLQMNSLKPVDTAVYYCAADYRYRRYRGHVSKLYYWGQGTQVTVSS", "low polyreactivity"],
  ["QVQLVESGGGIVQAGGSLRLSCAASGRTFYPNGMGWYRQERGKERQLVAAITSGGRTNYADSVKGRFTISRDNAKNTVYLQMHSRKPEDTAVYYSNAVKRRSTSSGMDYWGQGTQVTVSS", "high polyreactivity"],
  ["QVQLVESGGGLVQAGGSLRLSCAASGSIFRYYAMGWYRQAPGQERELVAAISRRGSSTYYADSVKGRFTISRDNAKNTVYLQLNSLKPEDTAVYYCAARSRHSGLTQPTLDYWGQGTQVTVSS", "high polyreactivity"],
  ["QVQLVESGGGLVQAGGSLRLTCAASAFIFHFNAMGWYRQAPGKERELVAAISRTGGTTYYADSVKGRFTISRDNAKNTVYLQMNSLKPEDTAVYYCAAYSKYGQHYDYWGQGTQVTVSS", "high polyreactivity"],
  ["QVQLVESGGGLVQAGGSLRLSCAASGFTLRKYSMGWYRQAPGKEREFVATISSRAASTYYADSVKGRFTISRDNAKNTVYLQMISLKPEDTAVYYCNKVSPYRGYYWGQGTQVTVSS", "high polyreactivity"],
  ["QVQLVESGGGLVQAGGSLRLSCAASGRIFGLYAMGWYRQAPGKERELVARITRGGSTYADSVKGRFTISRDNAKNSVYLQMNSLKPEDTAVYYCNAEWIVRNSGDYEYWGQGTQVTVSS", "high polyreactivity"],
  ["QVQLVESGGGLVQAGGSLRLSCAASGRIFDYNAMGWYRQAPVKERELVATITTGGSTYYADSVKGRFTISRDNAKNTVYLQMYSLKPEDTAVYYCAARRWYFHYFAYGYWGQGTQVTVSS", "low polyreactivity"]
]}

Please give the documented polyreactivity (PSR sort gate) of "QVQLQESGGGLVQAGGSLRPSCAASGSISDGVPMGCYRQAPGEERELVATTVLGATTNYADSVKGRFTISRGNAKNTVYLQMNSLKPEETAVYYCAAPLRYDKGFSYWGQGTQVTVSS"
low polyreactivity

Please give the documented polyreactivity (PSR sort gate) of "QVQLVESGGGLVQAGGSLRLSCAASGFTFVAYAMGWYRPAPGKERELVAAIRRTDTSTYYADSVKGRFTISRDNAKNTVYLQMNSLKPEDTAVYYCAADYWRRTYLGFDYWGQGTQVTVSS"
low polyreactivity

Please give the documented polyreactivity (PSR sort gate) of "QVQLVESRGGLVQAGGSLRLSCSASGRIFTTYAMGWYRQAPGKEREFVAAISRSGGSTYYADSVKGRFTISRDNAKNTVYLQMNSLKPEDTAVYYCAAVPTSNSLRSSFSYWGQGSQVTVSS"
high polyreactivity
